ASSAY_SYSTEM: Angiotensin-converting enzyme (Oryctolagus cuniculus)
Sequence (P12822 whole entry): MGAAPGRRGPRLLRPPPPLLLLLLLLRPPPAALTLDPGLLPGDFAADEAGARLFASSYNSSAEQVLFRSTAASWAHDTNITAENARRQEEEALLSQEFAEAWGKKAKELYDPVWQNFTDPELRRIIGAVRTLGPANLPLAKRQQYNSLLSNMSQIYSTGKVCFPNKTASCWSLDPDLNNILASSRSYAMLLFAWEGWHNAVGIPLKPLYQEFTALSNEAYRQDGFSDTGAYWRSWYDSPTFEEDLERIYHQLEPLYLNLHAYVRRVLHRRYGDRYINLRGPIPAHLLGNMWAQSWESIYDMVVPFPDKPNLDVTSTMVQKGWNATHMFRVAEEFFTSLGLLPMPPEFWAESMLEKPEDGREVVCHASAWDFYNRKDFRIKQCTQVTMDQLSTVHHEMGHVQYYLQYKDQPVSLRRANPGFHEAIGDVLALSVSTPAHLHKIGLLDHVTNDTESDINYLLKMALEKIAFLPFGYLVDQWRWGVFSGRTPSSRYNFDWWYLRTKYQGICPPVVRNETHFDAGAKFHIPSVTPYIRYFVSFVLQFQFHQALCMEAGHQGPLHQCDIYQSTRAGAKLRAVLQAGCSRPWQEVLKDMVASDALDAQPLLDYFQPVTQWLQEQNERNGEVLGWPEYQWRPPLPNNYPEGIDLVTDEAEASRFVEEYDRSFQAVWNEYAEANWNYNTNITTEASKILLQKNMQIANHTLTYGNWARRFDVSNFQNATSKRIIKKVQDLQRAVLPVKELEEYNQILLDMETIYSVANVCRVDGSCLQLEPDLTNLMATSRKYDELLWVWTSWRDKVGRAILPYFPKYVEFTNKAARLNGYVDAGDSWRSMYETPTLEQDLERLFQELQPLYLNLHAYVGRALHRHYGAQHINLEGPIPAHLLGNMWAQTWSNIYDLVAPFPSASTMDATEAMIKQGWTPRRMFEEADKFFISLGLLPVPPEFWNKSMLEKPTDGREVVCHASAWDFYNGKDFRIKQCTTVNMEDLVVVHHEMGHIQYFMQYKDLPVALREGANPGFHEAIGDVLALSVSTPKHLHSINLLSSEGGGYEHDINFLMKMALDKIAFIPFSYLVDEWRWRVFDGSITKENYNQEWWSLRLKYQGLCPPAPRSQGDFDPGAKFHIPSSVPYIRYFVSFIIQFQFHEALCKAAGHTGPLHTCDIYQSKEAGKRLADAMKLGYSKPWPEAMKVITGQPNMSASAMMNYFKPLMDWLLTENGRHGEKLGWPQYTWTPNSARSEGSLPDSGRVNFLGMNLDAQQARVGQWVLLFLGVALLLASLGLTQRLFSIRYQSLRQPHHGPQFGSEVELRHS
pIC50: −log10 of the molar value.
Label false if pIC50 falls below 7; label true in every other case.

# count of solved cases: 3
>>> print(df.to_string())
                                   compound  category_label
0  C[C@H](C[Si](O)(O)[C@@H](Cc1ccccc1)NC(=O)c1ccccc1)C(=O)N1CCC[C@H]1C(=O)O            true
1  C[C@@H](C[Si](O)(O)[C@H](Cc1ccccc1)NC(=O)c1ccccc1)C(=O)N1CCC[C@H]1C(=O)O           false
2  C[C@H](C[Si](O)(O)[C@H](Cc1ccccc1)NC(=O)c1ccccc1)C(=O)N1CCC[C@H]1C(=O)O            true

Ask | Can CC(C)CC(NC(=O)c1ccccc1)[Si](O)(O)CC(C)C(=O)N1CCC[C@H]1C(=O)O (stereo not given in full) be said to have pIC50 at or above 7?
Reply | true
